The entries below are paired with their reported melting point.

// below: answered compounds
{"chemicalString": "CCCc1nn(C)c2c(Nc3ccc(Cl)c(OC)c3)nc(-c3ccc(F)cc3)nc12.Cl", "testValue": "230 to 232 °C"}
{"chemicalString": "CCCc1nn(C)c2c(Nc3ccc(OC)c(OC)c3)nc(-c3ccc(F)cc3)nc12.Cl", "testValue": "178 to 181 °C"}

Data request: Report melting point for CCCc1nn(C)c2c(-c3ccc(OC)c(C)c3)nc(-c3ccccc3)nc12 please.
Data returned: 158 to 160 °C

Data request: Report melting point for Cc1nc2cc(Nc3nc(-c4ccccc4)nc4c(C)nn(C)c34)ccc2o1.Cl please.
Data returned: 272 to 274 °C

----------
assayReadout: melting point

{"chemicalString": "COc1cc(Nc2nc(-c3cccs3)nc3c(C)nn(C)c23)ccc1Cl.Cl", "testValue": "> 240 °C"}
{"chemicalString": "Cc1nn(C)c2c(-c3ccccc3)nc(-c3ccc(F)cc3)nc12", "testValue": "150 to 152 °C"}
{"chemicalString": "CCCc1nn(C)c2c(Nc3ccc4c(c3)OCO4)nc(-c3cccs3)nc12.Cl", "testValue": "246 to 250 °C"}

Data request: Report melting point for COc1ccc(Nc2nc(-c3ccc(F)cc3)nc3c(C)nn(C)c23)cc1Cl.Cl please.
Data returned: > 240 °C

Data request: Report melting point for CCCc1nn(C)c2c(Nc3ccc(O)c(Cl)c3)nc(-c3ccc(F)cc3)nc12.Cl please.
Data returned: 200 to 202 °C

Data request: Report melting point for Cc1nn(C)c2cc(-c3ccc(F)cc3)nc(-c3ccc(OC(F)(F)F)cc3)c12 please.
Data returned: 92 to 94 °C

----------
The entries below are paired with their reported melting point.

{"chemicalString": "COc1ccc(Nc2nc(-c3cccs3)nc3c(C)nn(C)c23)cc1Cl.Cl", "melting point": "> 240 °C"}
{"chemicalString": "CCCc1nn(C)c2c(-n3ccc4ccccc43)nc(-c3ccc(F)cc3)nc12", "melting point": "114 to 116 °C"}
{"chemicalString": "CCCc1nn(C)c2c(-c3ccc(O)c(C)c3)nc(-c3ccc(OC)c(O)c3)nc12", "melting point": "180 to 182 °C"}
{"chemicalString": "CCCc1nn(C)c2c(Nc3ccc(OC)c(F)c3)nc(-c3ccccc3OCC)nc12.Cl", "melting point": "194 to 196 °C"}
{"chemicalString": "Cc1nn(C)c2c(Nc3ccc(O)c(Cl)c3)nc(-c3ccc(F)cc3)nc12.Cl", "melting point": "238 to 240 °C"}
{"chemicalString": "Cc1nn(C)c2c(Nc3ccc(S(=O)(=O)N(C)C)cc3)nc(-c3ccc(F)cc3)nc12.Cl", "melting point": "254 to 256 °C"}

Shifting focus to the compound that follows.
Data request: Report melting point for Cc1nn(C)c2c(Nc3ccc(O)c(Cl)c3)nc(-c3cccs3)nc12.Cl please.
Data returned: > 240 °C

----------
assayReadout: melting point

{"chemicalString": "Cl.Fc1ccc(-c2nc(Nc3ccc(Cl)c(C(F)(F)F)c3)c3cnn(-c4ccccc4)c3n2)cc1", "melting point": "203.83 °C"}

Data request: Report melting point for CCCc1nn(C)c2c(Nc3ccc(F)cc3)nc(-c3ccc(F)cc3)nc12.Cl please.
Data returned: 161 to 164 °C

Data request: Report melting point for Cl.Fc1ccc(-c2nc(Nc3cccc(F)c3)c3cnn(-c4ccccc4)c3n2)cc1 please.
Data returned: 210 to 213 °C

Data request: Report melting point for CCCc1nn(C)c2c(Nc3ccc(OC)c(F)c3)nc(-c3ccccc3)nc12.Cl please.
Data returned: 248 to 250 °C
